I'd be grateful if you could share measured CC50 for these entries.
assay: NOVARTIS: Cytotoxicity against human hepatocellular carcinoma cell line (Huh7); assay type: toxicity, cell-based, Huh-7; details: Huh7 cells (hepatocellular carcinoma cell line)

CC50 in this record for COc1cc[n+](OC(=O)N2CCCCC2)c(C)c1 : 36.6 µM

CC50 in this record for Cc1ccc(S(=O)(=O)Nn2c(SCC(=O)NCCc3ccc(S(N)(=O)=O)cc3)nc3ccccc3c2=O)cc1 : > 100 µM

CC50 in this record for COC(=O)CSc1nnc2c(n1)[nH]c1c(OC)ccc(Cl)c12 : > 10 µM

CC50 in this record for Cc1cc(Br)cc(Cl)c1OC(=O)c1ccno1 : > 100 µM

CC50 in this record for CC(C)CNC(=O)c1cnc(NCCCn2ccnc2)nc1NCCc1ccccc1 : > 10 µM

CC50 in this record for COc1ccccc1-n1c(C=Cc2cc(Br)ccc2O)nc2ccccc2c1=O : 19.4 µM

CC50 in this record for Cc1ccc(C2(C)CC(C)(C)N(C(=O)Cc3ccccc3)c3ccc(C(c4ccccc4)(c4ccccc4)c4ccccc4)cc32)cc1 (stereo not given) : > 100 µM

CC50 in this record for N=c1c2ccccc2nnn1-c1cccc(C(F)(F)F)c1 : > 10 µM

CC50 in this record for O=c1c2[nH]c3ccccc3c2ncn1Cc1ccc2c(c1)OCO2 : > 100 µM

CC50 in this record for Cc1ccccc1NC(c1cccc(Cl)c1)c1nnnn1C1CCCCC1 (stereo not given) : > 10 µM

###

system: Plasmodium falciparum; experiment: NOVARTIS: Inhibition of Plasmodium falciparum W2 (drug-resistant) proliferation in erythrocyte-based infection assay; assay type: functional, organism-based; settings: Plasmodium falciparum, W2; read-out: EC50
I'd be grateful if you could share measured EC50 for these entries.
Output spec: scalar in nM, unitless text.

EC50 in this record for CC(C)CNC(=O)c1cnc(NCCCN2CCCCC2C)nc1NC1CCCC1 (stereo unspecified) : 52.8

EC50 in this record for CCc1ccc2[nH]c(=O)c(CN(CCCN(CC)CC)C(=S)NCCCN(C)C)cc2c1 : 664

EC50 in this record for Cc1ccc(C(=O)N(C)CCCNc2ccnc3cc(Cl)ccc23)cc1 : 122

EC50 in this record for Nc1ccc(-c2nc3ccc(-c4nc5ccc(N)cc5[nH]4)cc3[nH]2)cc1 : 55.6

EC50 in this record for Brc1ccc2ncnc(NCC3CCCO3)c2c1 (stereo unspecified) : 3750

###

I'd be grateful if you could share measured CC50 for these entries.
assay: NOVARTIS: Cytotoxicity against human hepatocellular carcinoma cell line (Huh7); format: toxicity, cell-based, Huh-7; settings: Huh7 cells (hepatocellular carcinoma cell line)

CC50 in this record for CCOC(=O)C1=C(C)NC2=C(C(=O)CC(c3ccc(OC)c(OC)c3)C2)C1c1ccccc1OC (configuration not stated) : > 100 µM

CC50 in this record for O=C(Cc1ccccc1)NC(c1ccccc1)c1ccc2cccnc2c1O (configuration not stated) : > 100 µM

CC50 in this record for CCOC(=O)N1CCC(N2C(=O)c3ccccc3C2Nc2ccc(OCC)cc2)CC1 (configuration not stated) : > 100 µM

CC50 in this record for COC(=O)C[S+]([O-])c1ccccc1 (configuration not stated) : > 10 µM

CC50 in this record for COc1ccc2ccccc2c1C1CC(=O)N2CN(Cc3ccco3)CSC2=C1C#N (configuration not stated) : > 100 µM

CC50 in this record for O=C(C1CCN(C(c2ccc(F)cc2)c2ccc(F)cc2)CC1)N1CCCC1 : > 10 µM

CC50 in this record for Cc1ccn2c(NC(C)(C)CC(C)(C)C)c(-c3ccccc3OC(=O)C3C[C@H]3c3ccccc3)nc2c1 (some centres not stated) : > 10 µM

CC50 in this record for c1ccc(C2=Nc3ccccc3C(c3ccccc3)(c3ccccc3)N2)cc1 : 39.4 µM

CC50 in this record for COc1ccccc1-n1c(C(C)N2CCN(C(=O)c3cc([N+](=O)[O-])cc([N+](=O)[O-])c3)C(C)C2)nc2ccccc2c1=O (configuration not stated) : > 10 µM

CC50 in this record for CC(=O)Nc1c(NCc2ccccc2)c2ccccc2sc1=O : > 100 µM

CC50 in this record for CN(C)C(=O)C1C2NC(=S)N(c3ccccc3)C1(C)Oc1ccccc12 (configuration not stated) : > 10 µM

CC50 in this record for Cc1ccc(N2C(=O)c3sc4nnc(C)c(=O)n4c3C2=O)cc1 : > 10 µM

CC50 in this record for COc1ccc(OC)c(C(C(=O)NC2CCCC2)N(C(=O)c2snc(C(N)=O)c2N)c2ccccc2OC)c1 (configuration not stated) : > 100 µM

CC50 in this record for O=C(NCCCNC(=O)Nc1cccc(C2=NCCN2)c1)Nc1cccc(C2=NCCN2)c1 : > 10 µM

CC50 in this record for COc1ccccc1N1CCN(c2ccc(NC(=O)c3ccc(F)cc3)cc2C(=O)N2CCCC2)CC1 : > 10 µM

CC50 in this record for CCCCCCCCCn1c2c(c(=N)c3c1CCC3)CCCC2 : 3.74 µM

CC50 in this record for C=CC1CN2CCC1C(C(O)c1ccnc3ccc(OC)cc13)C2 (configuration not stated) : > 100 µM

CC50 in this record for O=C(NCCCN1CCCC1=O)c1cnc(N2CCN(Cc3ccccc3)CC2)nc1NCCc1ccccc1 : > 10 µM

CC50 in this record for CCOC(=O)c1cnc2c(Cl)cccc2c1Nc1cccc(C(C)=O)c1 : > 100 µM

CC50 in this record for COc1ccc([N+](=O)[O-])cc1-c1ccc(C=C(C#N)c2nn(CCO)c(N)c2C#N)o1 : > 100 µM

CC50 in this record for OCCC1CN(Cc2cccc(Cl)c2)CCN1Cc1ccccc1 (configuration not stated) : > 100 µM

CC50 in this record for Oc1ccc(-c2ccnc3cc(Cl)ccc23)cc1CNCCN1CCOCC1 : > 11.9 µM

CC50 in this record for CCCCCCCCCC(=O)N1CCN(C(CC)c2nc3ccccc3c(=O)n2C)CC1 (configuration not stated) : > 10 µM

CC50 in this record for O=c1c2c3c(sc2ncn1Cc1cccc(Cl)c1)CC(N1CCCCC1)CC3 (configuration not stated) : 27.8 µM

CC50 in this record for COc1cc2c(cc1OC)C(=NN=C1NC(C)(C)Cc3ccccc31)NC(C)(C)C2 : > 10 µM

CC50 in this record for O=c1c2sccc2nc(SCc2cc(=O)n3ccccc3n2)n1Cc1ccccc1 : > 10 µM

CC50 in this record for CCCN(CC(=O)Nc1cc(C(C)(C)C)nn1-c1cccc(C)c1C)C(=O)C(C)(C)C : > 10 µM

CC50 in this record for COc1ccc(CN2CCN(Cc3ccc(OC)c(C)c3C)C(CCO)C2)c(O)c1 (configuration not stated) : > 44.1 µM

CC50 in this record for O=C(C=Cc1ccc(Br)cc1)NC(=O)c1ccccc1O : > 100 µM

CC50 in this record for C=CCSc1nn2c(=O)c(C)nnc2s1 : > 10 µM

CC50 in this record for O=C1C2C(C(=O)N1c1ccc(Br)cc1)C1C=CC2C12CC2 (configuration not stated) : > 100 µM

CC50 in this record for COc1cc(NC(C)CCCN(Cc2ccccc2OC)C(=O)c2ccc(C)c([N+](=O)[O-])c2)c2ncccc2c1 (configuration not stated) : 4.64 µM

CC50 in this record for c1ccc(-c2cc(N3CCC4(CC3)OCCO4)nc(-c3ccccn3)n2)nc1 : > 10 µM

CC50 in this record for FC(F)(F)c1cccc(CNC2CCN(CCc3ccccc3)CC2)c1 : 7.39 µM

CC50 in this record for COc1ccc(-c2nc(CN3CCCCC3)ccc2O)cc1 : > 10 µM

CC50 in this record for C(=NNc1nc2ccccc2[nH]1)c1ccccc1 : > 100 µM

CC50 in this record for COCCn1nnnc1C(c1cc2cc3c(cc2[nH]c1=O)OCCO3)N1CCC(O)CC1 (configuration not stated) : > 10 µM

CC50 in this record for CCCOC(=O)C1=C(C)NC2=C(C(=O)CC(c3ccc(OC)c(OC)c3)C2)C1c1ccccc1F (configuration not stated) : > 100 µM

CC50 in this record for CCn1c(SCC(=O)Nc2ccc(OC)cc2)nc2ccsc2c1=O : > 11.7 µM

CC50 in this record for N#Cc1ccc2c(c1)nc1c3ccc4c5c(ccc(c(=O)n21)c53)C(=O)NC4=O : > 100 µM

CC50 in this record for CCCCCCCCC(=O)N(C)CCCNc1ccnc2cc(Cl)ccc12 : > 10.7 µM

CC50 in this record for CCOC(=O)c1cnc2c(OC)cccc2c1Nc1cc(C)c(Cl)cc1OC : > 10 µM
